The measurements presented in this section are drawn from paper PMC9352680.

Record form. Attribute: pKd. Fill in for each entry.
Target: T1, PUF4 RNA-binding domain (Saccharomyces cerevisiae, UniProt P25339 537-888)
T1 sequence: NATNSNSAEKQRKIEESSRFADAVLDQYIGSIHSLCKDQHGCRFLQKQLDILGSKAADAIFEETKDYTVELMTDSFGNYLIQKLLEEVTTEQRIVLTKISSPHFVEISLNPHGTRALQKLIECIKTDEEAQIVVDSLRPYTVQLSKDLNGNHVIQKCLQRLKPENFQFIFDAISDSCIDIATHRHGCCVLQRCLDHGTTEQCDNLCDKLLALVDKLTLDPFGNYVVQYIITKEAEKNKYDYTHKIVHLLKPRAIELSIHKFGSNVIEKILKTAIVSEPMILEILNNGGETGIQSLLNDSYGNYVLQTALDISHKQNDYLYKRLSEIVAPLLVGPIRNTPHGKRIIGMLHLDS
Assay: Mg; RNA-MaP; 20 mM Na-HEPES pH 7.4, 30 mM KOAc, 0.75 mM MgCl2, 0.1% Tween-20, 5% glycerol, 0.1 mg/mL BSA, 2 mM DTT; 25 C; 0.0125-409.6 nM protein
Settings: tags: N-His6-TEV cleaved; C-SNAP kept, Cy3B-labelled; label: tethered on chip by stalled RNA polymerase
Please treat pKd as minus the base-10 logarithm of the molar concentration.

The recorded pKd for entry Ic_S2_P3E.1_K3.1_C3.1_H3.1_A3.1_[A6G]_F3.1_[T7G]_[A8C]_T3.1 (ssRNA) RNA: UUUGAUUAAUAUGAUAUCGUUCUUUCUUGUAUGGCUUCUUUCUCGAUAUCAUAUUAAUCUUU equals 6.02

Lab book: pKd of Ib_S2_P5E.1_K5.1_C5.1_H5.1_[G2T]_A5.1_[T6C]_F5.1_T5.1 (ssRNA) RNA: UUUGAUUAAUAUGAUAUCGUUCUUUCUUUUAUCAUUAUUCUUUCUCGAUAUCAUAUUAAUCUUU noted as 5.69

# pKd of UCUCUUCCUAUAUAUACGUCUCUU (ssRNA) [Id_ii_S1_P3E.3_K3.2_C3.2_[T-1C]_H3.2_A3.1_F3.1_T3.2_[T9C]_[A10G]] = 5.71

Quick note, pKd for Id_ii_S4_P3E.2_K3.1_C3.2_[T-1C]_H3.1_A3.1_F3.1_T3.2_[T9G]_[A10T] (ssRNA) RNA: UUUGACAACUGAUCGUUCUUUCUCCUGUAUAUAGUUUCUUUCUCGAUCAGUUGUCUUU landed at 8.75

get_value(item= UCUCUUUCAUGUAUAUAUAUCUCUU (ssRNA) [Id_iii_S1_P3E.5_K3.1_C3.3_[T-1A]_H3.1_A3.1_F3.1_T3.2] , readout=pKd) returns 8.19

Form: binder = Id_ii_S4_P3E.2_K3.1_C3.2_[C-2A]_[T-1C]_H3.1_A3.1_F3.1_T3.2_[A10T] (ssRNA) RNA: UUUGACAACUGAUCGUUCUUUCUACUGUAUAUAUUUUCUUUCUCGAUCAGUUGUCUUU ; pKd = 8.57

Lookup result for UCUCUUCGUAUAAUAUCUCUU (ssRNA) [Ib_S1_P4E.1_K4.1_C4.1_H4.1_[T1C]_A4.1_[T7A]_F4.1_T4.1] ; measured pKd: 6.88

The recorded pKd for Ib_S2_P4E.1_K4.1_C4.1_H4.1_A4.1_[A6C]_F4.1_[T8A]_T4.1 (ssRNA) RNA: UUUGAUUAAUAUGAUAUCGUUCUUUCUUGUAUCUAAUUCUUUCUCGAUAUCAUAUUAAUCUUU is 7.97

Measured pKd, Id_iii_S2_P4E.5_K4.1_C4.3_[C-2T]_H4.1_A4.1_F4.1_T4.2 (ssRNA) RNA: UUUGAUUAAUAUGAUAUCGUUCUUUCUUUUUGUAUAUUAGUUUCUUUCUCGAUAUCAUAUUAAUCUUU : 8.97

Measured pKd of Ie_S4_P3E.2_K3.1_C3.2_H3.1_[+3TTCC]_A3.1_F3.1_T3.2 (ssRNA) RNA: UUUGACAACUGAUCGUUCUUUCUCUUGUUUCCAUAUAUAUUCUUUCUCGAUCAGUUGUCUUU : 7.63

Measured pKd of UCUCUUUGUAUGGUUUCUCUU (ssRNA) [Ic_S1_P4E.1_K4.1_C4.1_H4.1_A4.1_[A6G]_[T7G]_F4.1_[A9T]_T4.1] : 6.27

Measured pKd, UCUCUUUGUAUGGUUAUCUCUU (ssRNA) [Ib_S1_P5E.1_K5.1_C5.1_H5.1_A5.1_[T6G]_[A7G]_F5.1_T5.1] : 7.43

pKd in this record for Id_ii_S2_P4E.3_K4.2_C4.2_[T-1A]_H4.2_A4.1_F4.1_T4.2_[G10C]_[T11A] (ssRNA) RNA: UUUGAUUAAUAUGAUAUCGUUCUUUCUCAUAUAUAUUACAUUCUUUCUCGAUAUCAUAUUAAUCUUU : 7.79

Recorded pKd (binder UCUCUUGUACACUAUUACCUCUCUU (ssRNA) [Id_ii_S1_P4E.4_K4.3_C4.2_[C-2G]_H4.3_A4.1_F4.1_T4.2_[G10C]_[T11C]] ): 9.21

response.value for Ic_S4_P5E.1_K5.1_C5.1_H5.1_A5.1_[T5C]_[T6G]_[A7C]_F5.1_[T8C]_[T9C]_T5.1 (ssRNA) RNA: UUUGACAACUGAUCGUUCUUUCUUGUACGCCCAUUCUUUCUCGAUCAGUUGUCUUU (field: pKd) = 6.33

Entry UCUCUUCCUGUAUAUUAAUUCUCUU (ssRNA) [Id_ii_S1_P4E.2_K4.1_C4.2_[T-1C]_H4.1_A4.1_F4.1_T4.2_[G10A]] — recorded pKd = 9.16

# pKd (binder: UCUCUUGUUAUAUUAUCUCUU (ssRNA) [Ib_S1_P4E.1_K4.1_C4.1_H4.1_[T1G]_[G2T]_A4.1_F4.1_T4.1] ) is 7.91

Reported pKd of Id_ii_S4_P3E.4_K3.3_C3.2_[C-2A]_[T-1A]_H3.3_A3.1_F3.1_T3.2_[A10C] (ssRNA) RNA: UUUGACAACUGAUCGUUCUUUCUAAACACUAUAUCUUCUUUCUCGAUCAGUUGUCUUU : 5.99

Reported pKd for UCUCUUUGUAUUUCCUUAUUAUCUCUU (ssRNA) [Ie_S1_P5E.1_K5.1_C5.1_H5.1_A5.1_[+5TTCCT]_F5.1_T5.1] was 7.52

# binder UCUCUUCGUGUAUAUAUUUCUCUU (ssRNA) [Id_ii_S1_P3E.2_K3.1_C3.2_[T-1G]_H3.1_A3.1_F3.1_T3.2_[A10T]] ; its pKd = 8.07

Value of pKd reported for the binder UCUCUUUGUAACUUAUCUCUU (ssRNA) [Ib_S1_P4E.1_K4.1_C4.1_H4.1_A4.1_[T5A]_[A6C]_F4.1_T4.1] is 8.08

Entry Ib_S2_P5E.1_K5.1_C5.1_H5.1_A5.1_[T5G]_F5.1_[A10C]_T5.1 (ssRNA) RNA: UUUGAUUAAUAUGAUAUCGUUCUUUCUUGUAGUAUUCUUCUUUCUCGAUAUCAUAUUAAUCUUU — recorded pKd = 7.21
